System: P815 murine mastocytoma cell
assay comment: MTT cytotoxicity on P815
Format: cell-based
experimental parameters: Mus musculus, 72 hr culture, read-out: IC50 of 72-hour culture P815
Description: This assay was performed to determine the effect of compounds of the present invention on cell cytotoxicity. Cells were incubated in presence or absence of compounds in their respective conditioned media. After 24 hr or 72 hr incubation, 50 μl of 3-(4,5-dimethyl-2-thiazyl)-2,5-diphenyl-2H-tetrazolium bromide (MTT; 2 mg/ml) was added and further incubated for 4 hr. […] Absorbance was read at 570 nm with a TecanSunrise ELISA plate reader. […] IC50 was determined using Prism software. […]
experimental endpoint: IC50 (µM)
Give bare numbers, in µM.

CN(C)S(=O)(=O)c1ccc(CCNc2nc(NCCCCCN)nc(Nc3cccc(F)c3)n2)cc1 | 5.5
NCCCCCNc1nc(NCCc2ccc(O)cc2)nc(Nc2cccc(F)c2)n1 | 4

Hi team, please reply with IC50 for each item in this list.
1. NCCCCCNc1nc(Nc2cccc(F)c2)nc(-c2cccc(F)c2)n1
2. NCCCCCNc1nc(NCCc2ccc(S(N)(=O)=O)cc2)nc(Nc2cccc(F)c2)n1

1. 21.7
2. 1.6

List the reported IC50 of each compound below.
1. NCCCCCNc1nc(NCCc2ccc(S(N)(=O)=O)cc2)nc(Nc2ccc(F)cc2)n1
2. NCCCCCNc1nc(NCCc2ccc(O)cc2)nc(Nc2ccc(F)cc2)n1
3. NCCCCCNc1nc(Nc2ccc(S(N)(=O)=O)cc2)nc(Nc2cccc(F)c2)n1

[4, 7.5, 2.9]
